Test: Solubility of compound 937 in early formulation vehicles / as in situ salt
Assay type: physicochemical
Settings: aqueous with cosolvent or surfactant or cyclodextrin; in 10% polysorbate 80 in 5% dextrose solution
outcome.measure: solubility

> print(dat)
                              line.notation  measured.value
1  CN1CCN(c2ccc(OC(F)(F)F)c(Nc3ncc4c(n3)-c3c(c(C(N)=O)nn3CCO)CC4)c2)CC1     ~4000 µg/mL

----------
Experiment: Aqueous solubility of compound 937 salts and free base (excess solid stirred in water, filtered, HPLC)
Assay type: physicochemical
Conditions: thermodynamic from solid, RT, stirred 4 hours, excess solid (target 10 mg/ml)
outcome.measure: solubility at 4 h

> print(dat)
                                   compound  measured.value
1  CN1CCN(c2ccc(OC(F)(F)F)c(Nc3ncc4c(n3)-c3c(c(C(N)=O)nn3CCO)CC4)c2)CC1 [compound 937]     < 100 µg/mL
